Test system: CYP3A4 mRNA
condition-parameters: human
measurement-name: pEC50
// pEC50 here means minus log10 of the molar concentration (mol/L)

What does the record list as pEC50 for CCC1(c2ccccc2)C(=O)NC(=O)NC1=O [Phenobarbital, phenobarbital] ?
3.78

###

In this section, each of the compounds is paired with its reported EC50.
Test system: CYP2B6 mRNA
test-name: CYP2B6 mRNA induction in 5F HepaRG control cells (real-time PCR)
Assay type: in vitro ADME, human
condition-parameters: 5F cells; 48 h; value of each individual experiment (two per cell)
Lab book: enter the figure in µM, no units written.

Clc1ccc(-c2nc3sccn3c2C=NOCc2ccc(Cl)c(Cl)c2)cc1 [CITCO] :: 1
NC(=O)N1c2ccccc2C=Cc2ccccc21 [Carbamazepine, carbamazepine] :: 5.4
CCC1(c2ccccc2)C(=O)NC(=O)NC1=O [Phenobarbital, phenobarbital] :: 195

# evaluate next
What does the record list as EC50 for O=C1NC(=O)C(c2ccccc2)(c2ccccc2)N1 [Phenytoin, phenytoin] ?
7.8

Taken from paper PMC5045942.
